Each entry below lists one item and its recorded viability, T/C value.
Tested on: 168753-222-R-J1-PDC complex spheroid viability;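 note: luminescence signal used as surrogate for viable cell amount; viability measured after seven days of drug exposure; 100% = DMSO vehicle control wells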
test.summary: Anticancer human tumor 168753-222-R-J1-PDC patient-derived bladder carcinoma cell line growth inhibition [CLK]
protocol.conditions: second compound 10 µM; first compound 3.16 µM; stronger effect = lower value
Answer format: numeric, % implied, no suffix.

compound	units.label	numeric.readout
COc1ccc([C@@H](O)c2cc(-c3ncnc4cc(N5CCOCC5)ccc34)c(F)cc2Cl)nn1 + CN1CCN(c2cc(C(=O)Nc3cc4cc(-c5cnn(C)c5)ccc4cn3)ccn2)CC1	%	0.4

Exercise: What measured viability, T/C goes with CCCS(=O)(=O)Nc1ccc(F)c(C(=O)c2c[nH]c3ncc(-c4ccc(Cl)cc4)cc23)c1F + CN1CCN(c2cc(C(=O)Nc3cc4cc(-c5cnn(C)c5)ccc4cn3)ccn2)CC1 ?
Solution: 3.61

Exercise: What measured viability, T/C goes with CC(=O)O[C@H]1C(=O)[C@@]2(C)[C@H]([C@H](OC(=O)c3ccccc3)[C@]3(O)C[C@H](OC(=O)[C@H](O)[C@@H](NC(=O)c4ccccc4)c4ccccc4)C(C)=C1C3(C)C)[C@]1(OC(C)=O)CO[C@@H]1C[C@@H]2O + CN1CCN(c2cc(C(=O)Nc3cc4cc(-c5cnn(C)c5)ccc4cn3)ccn2)CC1 ?
Solution: 0.17

Exercise: What measured viability, T/C goes with COc1cccc2c1C(=O)c1c(O)c3c(c(O)c1C2=O)CC(O)(C(=O)CO)CC3OC1CC(N)C(O)C(C)O1 (stereo not given) + CN1CCN(c2cc(C(=O)Nc3cc4cc(-c5cnn(C)c5)ccc4cn3)ccn2)CC1 ?
Solution: 0.95

Exercise: What measured viability, T/C goes with CC1(C)CCC(CN2CCN(c3ccc(C(=O)NS(=O)(=O)c4ccc(NCC5CCOCC5)c([N+](=O)[O-])c4)c(Oc4cnc5[nH]ccc5c4)c3)CC2)=C(c2ccc(Cl)cc2)C1 + CN1CCN(c2cc(C(=O)Nc3cc4cc(-c5cnn(C)c5)ccc4cn3)ccn2)CC1 ?
Solution: 0.35
